Entries and their Ki
Biological target: FVIIa (Homo sapiens, UniProt P08709)
Construct: with about 1% of the total amount in the proteolytically active form factor VIIa
Sequence (P08709 213-466 limits assumed): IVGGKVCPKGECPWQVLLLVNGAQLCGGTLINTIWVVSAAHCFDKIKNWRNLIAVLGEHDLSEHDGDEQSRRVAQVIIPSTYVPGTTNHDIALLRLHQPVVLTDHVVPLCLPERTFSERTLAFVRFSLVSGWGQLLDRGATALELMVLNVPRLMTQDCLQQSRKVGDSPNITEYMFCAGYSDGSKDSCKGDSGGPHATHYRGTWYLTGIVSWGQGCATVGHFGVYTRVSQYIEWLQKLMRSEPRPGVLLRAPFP
Sequence (P08709 61-212 limits assumed): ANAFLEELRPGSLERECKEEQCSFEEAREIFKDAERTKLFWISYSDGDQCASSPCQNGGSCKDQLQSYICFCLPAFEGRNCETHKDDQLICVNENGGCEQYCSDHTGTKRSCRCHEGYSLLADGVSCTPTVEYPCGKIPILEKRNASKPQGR
Sequence (P13726 33-295 partner): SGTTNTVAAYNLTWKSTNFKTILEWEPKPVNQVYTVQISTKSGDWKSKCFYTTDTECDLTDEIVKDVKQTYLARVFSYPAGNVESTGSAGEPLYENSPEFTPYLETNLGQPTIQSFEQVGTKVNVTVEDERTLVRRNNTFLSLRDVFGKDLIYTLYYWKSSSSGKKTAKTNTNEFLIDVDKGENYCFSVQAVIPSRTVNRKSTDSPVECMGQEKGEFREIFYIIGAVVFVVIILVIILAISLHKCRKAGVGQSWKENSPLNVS
Assay: FVIIa Ki (25° C.): FVIIa peptide substrate assay
Assay type: biochemical
Settings: S2288 peptide substrate, full-length human TF
Where a name gives a salt, the structure may show the parent alone.
Write the value in nM as a bare number.

Solved entries:
compound	value_units	Ki
CN1Cc2cc(ccc2S(=O)(=O)C2CC2)NC(=O)N(CC2CCC2)CCc2cccc(c2)C(Nc2ccc3c(N)ncc(F)c3c2)C1=O (stereo not drawn) [Example 27, trifluoroacetic acid salt]	nM	148
CN1CCc2cccc(c2)[C@@H](Nc2ccc3c(N)ncc(F)c3c2)C(=O)N(C)Cc2cc(ccc2S(=O)(=O)C2CC2)NC1=O (single isomer, unassigned)	nM	14

Lab note: next compound to report on.
Lookup: Quick check: Ki of CN1Cc2cc(ccc2S(=O)(=O)C2CC2)NC(=O)OCC2(CC2)c2cccc(c2)C(Nc2ccc3c(N)nccc3c2)C1=O (stereo not drawn) [Example 5, trifluoroacetic acid salt] ?
Found: 950
